test system: Mycobacterium tuberculosis; assay: Cornell - Phenotypic assay to identify agents that inhibit growth of Mycobacterium tuberculosis; assay type: functional; design: scale not given: direction of the effect not stated beside the values; conditions: 10 mM as filed; unlikely as a test dose
The whole screen tested about 53,000 compounds, of which about 900 (1.7%) showed an effect of 50% or more. The sample holds strong results, similar compounds and a random draw of the others, so the mix is not that of the screen.
# binarize Percent Effect: threshold 50% inclusive, high side YES, low side NO

hey, is Percent Effect for this one >= 50%? Cc1ccccc1CCCN1CCS(=O)(=O)CC1C (stereo not given)
NO

Here is the next compound: O=C(NC1CCN(CC2CC2)C1)N1CCC(OC2CCCCC2)CC1 (stereo not given)
NO

Cool, now O=C(NCC(Cc1cccc(F)c1)N1CCCC1=O)c1ccc(=O)[nH]n1 (stereo not given)
NO

How about `Cc1ccc([C@]2(O)CC[C@H]3CN(Cc4cccc(Cl)c4Cl)C[C@H]32)nc1.O=C(O)CC(O)(CC(=O)O)C(=O)O` ?
YES

Also check `CCSc1nnc(N(CCC#N)CCC#N)s1`
NO

Another compound: `CSc1nnc(N(CCC#N)CCC#N)s1`
NO

Next compound: `Cc1nnc(N(CCC#N)CCC#N)s1`
YES

Now give it for `Cc1ccc([C@]2(O)CC[C@H]3CN(Cc4cccc(F)c4F)C[C@H]32)nc1.O=C(O)CC(O)(CC(=O)O)C(=O)O` too.
NO
